# target-or-test-system: hGIPR (Homo sapiens, UniProt P48546)
# Construct: expressed in transfected cells; host or cells: CHO cells carrying a CRE-luciferase reporter gene
# Sequence (P48546 22-466): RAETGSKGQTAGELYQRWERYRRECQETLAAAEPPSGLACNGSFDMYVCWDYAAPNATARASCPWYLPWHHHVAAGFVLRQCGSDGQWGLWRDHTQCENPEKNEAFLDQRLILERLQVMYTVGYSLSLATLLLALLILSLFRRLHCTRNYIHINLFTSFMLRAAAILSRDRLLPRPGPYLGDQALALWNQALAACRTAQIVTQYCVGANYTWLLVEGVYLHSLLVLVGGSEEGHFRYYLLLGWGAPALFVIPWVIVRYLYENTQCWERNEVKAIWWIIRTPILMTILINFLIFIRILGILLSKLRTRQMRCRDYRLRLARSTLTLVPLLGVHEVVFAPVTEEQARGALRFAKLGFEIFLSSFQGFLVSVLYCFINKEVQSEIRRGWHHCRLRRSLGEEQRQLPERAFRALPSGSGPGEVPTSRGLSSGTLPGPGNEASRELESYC
# assay-explanation: hGIPR CreLuc reporter gene assay in 0.5% and 100% plasma
# Assay type: cell-based
# study-conditions: CreLuc reporter gene assay, 100% human plasma; read-out: hGIPR 100% hP
# Protocol: Example 1: hGLPR/hGIPR/hNPY2R CreLuc Assay in 0.5% and 100% Plasma CHO and HEK-293 recombinant cell lines express a luciferase reporter gene under control of the cAMP responsive element (CRE). […] Following incubation, assay plates are equilibrated to room temperature, followed by addition of 25 μl of Bright-GIo™ Luciferase reagent, incubation at room temperature for 10 minutes and analysis of luminescence (Envision Reader). […]
Starred links: 1 amine or outer side, 2 acyl side, 3 side chain; linkers in the order of their positions; H or OH if unused. Non-standard residues stand in square brackets, D forms with d. Groups on a side chain read outwards from the residue. *: point of attachment. C20 diacid = O=C(O)CCCCCCCCCCCCCCCCCCC(=O)*; C18 diacid = O=C(O)CCCCCCCCCCCCCCCCC(=O)*; γGlu = O=C(O)[C@H](CCC(=O)[*:2])N[*:1]; εLys = N[C@@H](CCCCN[*:1])C(=O)[*:2]; AEEA = NCCOCCOCC(=O)O; Aib = CC(C)(N)C(=O)O
Overview of reported EC50 across a group of substances:
Numbers only here, please. The scale is nM.

[[record]]
substance = "H-Y[Aib]EGTFTSDYSI[Aib]LEKQAQ[Aib]AFVEWLIK([εLys-γGlu-γGlu-γGlu-γGlu-γGlu-C20 diacid])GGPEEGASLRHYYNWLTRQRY-NH2 [Compound 230]"
readout_units = "nM"
measured_value = 1.43

[[record]]
substance = "H-Y[Aib]EGTFTSDYSI[Aib]LEKQAQ[Aib]AFVEWLIK([εLys-γGlu-γGlu-γGlu-γGlu-γGlu-C18 diacid])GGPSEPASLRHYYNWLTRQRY-NH2 [Compound 263]"
readout_units = "nM"
measured_value = 1.5

[[record]]
substance = "H-Y[Aib]EGTFTSDYSI[Aib]LEKQAQ[Aib]AFVQWLIK([AEEA-AEEA-Glu-Glu-Glu-Glu-C18 diacid])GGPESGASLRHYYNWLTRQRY-NH2 [Compound 52]"
readout_units = "nM"
measured_value = 0.65

[[record]]
substance = "H-Y[Aib]EGTFTSDYSI[Aib]LEKQAQ[Aib]EFVEWLIK([εLys-γGlu-γGlu-γGlu-γGlu-γGlu-γGlu-C20 diacid])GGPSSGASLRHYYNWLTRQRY-NH2 [Compound 215]"
readout_units = "nM"
measured_value = 2.94

[[record]]
substance = "H-Y[Aib]EGTFTSDYSI[Aib]LEKQAQ[Aib]AFVQWLIK([εLys-γGlu-γGlu-γGlu-γGlu-γGlu-γGlu-C18 diacid])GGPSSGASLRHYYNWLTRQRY-NH2 [Compound 170]"
readout_units = "nM"
measured_value = 1.15


EC50 lookup needed for H-Y[Aib]EGTFTSDYSI[Aib]LEKQAQ[Aib]EFVQWLIK([εLys-γGlu-γGlu-γGlu-γGlu-γGlu-γGlu-C18 diacid])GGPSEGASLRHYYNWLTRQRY-NH2 [Compound 153] , thanks.
1.21

EC50 lookup needed for H-Y[Aib]EGTFTSDYSI[Aib]LEKQAQ[Aib]EFVQWLIK([γGlu-γGlu-γGlu-γGlu-C20 diacid])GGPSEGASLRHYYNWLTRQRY-NH2 [Compound 194] , thanks.
1.83
